Assay: in vivo
Conditions: male, beagle, dog, plasma, iv, 1 mg/kg
Measurement label: MRT (h)
Field format: number, assumed h, no unit text.

Please look up its MRT: Cc1cnc(C(=O)c2ncnc3[nH]ccc23)c(NS(=O)(=O)c2ccc(Cl)c(C(F)(F)F)c2)c1
7.2
